TGI values, listed per item
System: SK-MEL-5 melanoma
assay-name: NCI tumour cell line growth inhibition, 48 h

Study these solved cases before continuing.
>  <compound>
O=C(COc1ccc(OCC(=O)N/N=C/c2ccc(-c3ccc(Cl)cc3Cl)o2)c(Cl)c1)N/N=C/c1ccc(-c2ccc(Cl)cc2Cl)o1

>  <system-name>
SK-MEL-5 melanoma

>  <TGI>
> 100 µM

$$$$
>  <compound>
CSCC[C@@H](NC(=O)[C@H](CC(C)C)NC(=O)C(Cc1cnc[nH]1)NC(=O)CNC(=O)[C@@H](NC(=O)[C@H](C)NC(=O)[C@H](Cc1c[nH]c2ccccc12)NC(=O)[C@H](CCC(N)=O)NC(=O)[C@@H](N)CC(N)=O)C(C)C)C(N)=O (stereo partly drawn)

>  <system-name>
SK-MEL-5 melanoma

>  <TGI>
> 100 µM

$$$$

--- query ---
Ask: Missing value: TGI, SK-MEL-5 melanoma, entry `COc1ccc2c(c1)C(=O)c1c-2c(Nc2ccccc2OC)nc2ccccc12` . Fill in?
Result: > 100 µM
